- Measurement Description: qHTS assay for identifying genotoxic compounds that show differential cytotoxicity against isogenic chicken DT40 cell lines with known DNA damage response pathways - wild type cell line (AID 743012); also: nearly all actives have a fitted effect of over 60% in size
- Run Conditions: DT40 wild type chicken cells viability, CellTiter-Glo, 40 h; series mostly up to 68.4 µM
Results filed as inconclusive are left out. Active and inactive are the calls of the source. Calls follow the shape of the dose curve; as a rule, active = well fitted cell-killing curve with a large enough effect in the repeat runs; inconclusive = weak or mixed curves, or effect the other way; inactive = no such curve, though single readings can be large or run the other way.
Classes used: 1 (yes) (active), 0 (no) (inactive)

[
  {
    "Compound": "O=C(O)c1ccc(O)cc1O",
    "Qualitative Label": "0 (no)"
  },
  {
    "Compound": "COc1ccc(N)c([N+](=O)[O-])c1",
    "Qualitative Label": "0 (no)"
  },
  {
    "Compound": "COc1ccc(C(=O)NCc2ccc(OCCN(C)C)cc2)cc1OC",
    "Qualitative Label": "0 (no)"
  },
  {
    "Compound": "CC(C)COC(=O)COc1cc(Cl)c(Cl)cc1Cl",
    "Qualitative Label": "0 (no)"
  },
  {
    "Compound": "CC(=O)NCCO",
    "Qualitative Label": "0 (no)"
  },
  {
    "Compound": "CC1=CC[C@@]23C[C@@H]1C(C)(C)[C@@H]2CC[C@H]3C",
    "Qualitative Label": "0 (no)"
  },
  {
    "Compound": "COC(=O)C1=C(C)NC(C)=C(C(=O)OC(C)(C)CN(C)CCC(c2ccccc2)c2ccccc2)C1c1cccc([N+](=O)[O-])c1 (stereo not drawn)",
    "Qualitative Label": "1 (yes)"
  },
  {
    "Compound": "C=Cc1ccc(OC(C)=O)cc1",
    "Qualitative Label": "0 (no)"
  },
  {
    "Compound": "CC1CCCO1 (stereo not drawn)",
    "Qualitative Label": "0 (no)"
  },
  {
    "Compound": "O=[N+]([O-])C1(Br)COCOC1",
    "Qualitative Label": "1 (yes)"
  },
  {
    "Compound": "CCNc1nc(N)nc(Cl)n1",
    "Qualitative Label": "0 (no)"
  },
  {
    "Compound": "C=C(C)c1ccccc1",
    "Qualitative Label": "0 (no)"
  },
  {
    "Compound": "COc1cc(C(C)=O)ccc1OCCCN1CCC(c2noc3cc(F)ccc23)CC1",
    "Qualitative Label": "1 (yes)"
  }
]

---

- Measurement Description: qHTS assay to identify small molecule agonists of the estrogen related receptor (ERR) signaling pathway from Tox21 library (AID 1224849); also: % is scaled to controls: 0 for no effect and ±100 for the full control effect; nearly all actives have a fitted effect of over 15% in size
- Run Conditions: ERR reporter cell line, ONE-Glo luciferase, 18 h; at 92.4 µM (top of the series) unless noted
The source made the active and inactive calls. Calls come from the whole dose curve.

[
  {
    "Molecule": "COC(=O)C1=C(C)NC(C)=C(C(=O)OC(C)(C)CN(C)CCC(c2ccccc2)c2ccccc2)C1c1cccc([N+](=O)[O-])c1 (stereo not drawn)",
    "activity change, positive = activation": "-45.4% [at 42.5 µM] (inactive)"
  },
  {
    "Molecule": "CCN(Cc1cccc(S(=O)(=O)O)c1)c1ccc(C(=C2C=CC(=[N+](CC)Cc3cccc(S(=O)(=O)O)c3)C=C2)c2ccccc2S(=O)(=O)[O-])cc1",
    "activity change, positive = activation": "-48.9% [at 42.5 µM] (inactive)"
  },
  {
    "Molecule": "OCC(CO)n1cnc(-c2ccc(F)cc2)c1-c1ccnc(Oc2ccccc2)n1",
    "activity change, positive = activation": "-29% (inactive)"
  },
  {
    "Molecule": "C1CCCCC1",
    "activity change, positive = activation": "7.76% (inactive)"
  },
  {
    "Molecule": "CC(C)C(O)C(C)(C)CO (stereo not drawn)",
    "activity change, positive = activation": "-71.7% (inactive)"
  },
  {
    "Molecule": "Cc1oc(=O)oc1COC(=O)[C@@H]1N2C(=O)[C@@H](NC(=O)[C@H](N)c3ccccc3)[C@H]2SC1(C)C",
    "activity change, positive = activation": "1.21% [at 42.5 µM] (inactive)"
  },
  {
    "Molecule": "SCCc1cnccn1",
    "activity change, positive = activation": "-18.7% (inactive)"
  },
  {
    "Molecule": "O=NN(CCCl)C(=O)NCCCl",
    "activity change, positive = activation": "2.54% [at 42.5 µM] (inactive)"
  },
  {
    "Molecule": "Cc1c[nH]c2ccccc12",
    "activity change, positive = activation": "0.349% [at 42.5 µM] (inactive)"
  },
  {
    "Molecule": "CCN(CC)c1ccc(C(=C2C=CC(=[N+](CC)CC)C=C2)c2ccc(S(=O)(=O)O)cc2S(=O)(=O)[O-])cc1",
    "activity change, positive = activation": "-60.1% (inactive)"
  },
  {
    "Molecule": "COc1cc(NCc2ccc3nc(N)nc(N)c3c2C)cc(OC)c1OC",
    "activity change, positive = activation": "-56.3% [at 42.5 µM] (inactive)"
  },
  {
    "Molecule": "CC12CC3CC(C)(C1)CC(N)(C3)C2",
    "activity change, positive = activation": "-0.576% [at 42.5 µM] (inactive)"
  },
  {
    "Molecule": "CCCCCCCCCCCSCC(=O)O",
    "activity change, positive = activation": "-19.7% (inactive)"
  }
]
